Hey, just so you know, these numbers are from patent US20220306695A1.

# experimental_system: T1, Human C3 (human, UniProt P01024 23-1663)
# T1 construct: In SPR the bought human C3 was immobilised on CM5 chips by amine coupling; In the haemolysis assay the C3 is that of diluted human serum; also called complement C3
# T1 sequence (P01024 23-1663 limits assumed): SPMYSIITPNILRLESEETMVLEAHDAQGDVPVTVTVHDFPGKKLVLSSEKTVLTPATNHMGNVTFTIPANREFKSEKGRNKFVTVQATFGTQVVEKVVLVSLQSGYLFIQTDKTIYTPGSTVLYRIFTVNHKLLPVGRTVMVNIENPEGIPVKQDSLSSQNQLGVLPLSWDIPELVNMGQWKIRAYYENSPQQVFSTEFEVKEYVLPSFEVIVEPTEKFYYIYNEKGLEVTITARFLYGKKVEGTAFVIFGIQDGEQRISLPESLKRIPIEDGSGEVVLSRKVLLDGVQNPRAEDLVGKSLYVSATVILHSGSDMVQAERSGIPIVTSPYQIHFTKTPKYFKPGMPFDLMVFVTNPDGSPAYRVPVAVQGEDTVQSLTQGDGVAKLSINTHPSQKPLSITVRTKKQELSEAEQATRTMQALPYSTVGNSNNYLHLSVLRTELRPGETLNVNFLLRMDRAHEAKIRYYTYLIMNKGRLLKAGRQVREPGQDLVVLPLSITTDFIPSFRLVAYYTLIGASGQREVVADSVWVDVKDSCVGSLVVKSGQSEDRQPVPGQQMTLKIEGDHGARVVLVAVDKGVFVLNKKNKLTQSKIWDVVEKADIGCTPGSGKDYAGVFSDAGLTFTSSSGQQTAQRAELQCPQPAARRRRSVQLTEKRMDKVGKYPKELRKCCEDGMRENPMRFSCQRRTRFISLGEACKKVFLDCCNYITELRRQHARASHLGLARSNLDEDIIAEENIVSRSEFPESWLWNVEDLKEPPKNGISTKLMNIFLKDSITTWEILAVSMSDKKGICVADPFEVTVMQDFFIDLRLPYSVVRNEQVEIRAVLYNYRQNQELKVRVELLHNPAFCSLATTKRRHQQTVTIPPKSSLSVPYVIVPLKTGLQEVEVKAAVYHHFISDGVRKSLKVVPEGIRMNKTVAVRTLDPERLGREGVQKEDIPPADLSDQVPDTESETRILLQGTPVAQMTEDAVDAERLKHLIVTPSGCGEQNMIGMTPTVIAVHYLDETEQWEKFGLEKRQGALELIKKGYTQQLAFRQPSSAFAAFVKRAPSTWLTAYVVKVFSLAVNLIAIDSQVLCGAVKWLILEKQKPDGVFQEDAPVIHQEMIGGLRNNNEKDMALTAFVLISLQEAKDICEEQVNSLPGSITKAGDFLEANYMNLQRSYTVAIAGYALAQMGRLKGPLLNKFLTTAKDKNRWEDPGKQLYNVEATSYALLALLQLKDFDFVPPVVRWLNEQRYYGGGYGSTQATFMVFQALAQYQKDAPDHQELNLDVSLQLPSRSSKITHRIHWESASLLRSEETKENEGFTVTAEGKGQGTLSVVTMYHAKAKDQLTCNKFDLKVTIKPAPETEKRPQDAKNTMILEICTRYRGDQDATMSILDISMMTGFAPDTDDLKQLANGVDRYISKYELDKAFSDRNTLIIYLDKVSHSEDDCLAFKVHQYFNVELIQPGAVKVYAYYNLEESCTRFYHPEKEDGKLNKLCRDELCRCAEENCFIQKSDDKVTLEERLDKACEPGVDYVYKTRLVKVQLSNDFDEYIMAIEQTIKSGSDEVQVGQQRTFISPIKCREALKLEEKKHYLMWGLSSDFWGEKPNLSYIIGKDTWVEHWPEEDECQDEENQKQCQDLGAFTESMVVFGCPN
# test_description: SPR, C3 immobilised
Positions of bridges follow the written chain, without caps; N, C: chain ends.
value_type: Kd (nM)

>>> endpoint_result("Ac-FCIWQDWGEHRCTGAE-NH2 (disulfide 2-12; SMILES CC[C@H](C)[C@@H]1NC(=O)[C@@H](NC(=O)[C@H](Cc2ccccc2)NC(C)=O)CSSC[C@@H](C(=O)N[C@H](C(=O)NCC(=O)N[C@@H](C)C(=O)N[C@@H](CCC(=O)O)C(N)=O)[C@@H](C)O)NC(=O)[C@H](CCCNC(=N)N)NC(=O)[C@H](Cc2c[nH]cn2)NC(=O)[C@H](CCC(=O)O)NC(=O)CNC(=O)[C@H](Cc2c[nH]c3ccccc23)NC(=O)[C@H](CC(=O)O)NC(=O)[C@H](CCC(N)=O)NC(=O)[C@H](Cc2c[nH]c3ccccc23)NC1=O) [Compound 43]")
3.3
>>> endpoint_result("Ac-EGSAICIWQDWGEHRCT-NH2 (disulfide 6-16; SMILES CC[C@H](C)[C@H](NC(=O)[C@H](C)NC(=O)[C@H](CO)NC(=O)CNC(=O)[C@H](CCC(=O)O)NC(C)=O)C(=O)N[C@H]1CSSC[C@@H](C(=O)N[C@H](C(N)=O)[C@@H](C)O)NC(=O)[C@H](CCCNC(=N)N)NC(=O)[C@H](Cc2c[nH]cn2)NC(=O)[C@H](CCC(=O)O)NC(=O)CNC(=O)[C@H](Cc2c[nH]c3ccccc23)NC(=O)[C@H](CC(=O)O)NC(=O)[C@H](CCC(N)=O)NC(=O)[C@H](Cc2c[nH]c3ccccc23)NC(=O)[C@H]([C@@H](C)CC)NC1=O) [Compound 29]")
21
